molecular target: T1, human TLR3 extracellular domain (ECD) (human, UniProt O15455 24-703); assay: ELISA, human TLR3 ECD coated, goat anti-human Fc:HRP, luminescence
T1 construct: amino acids 1-703 of human TLR3; the structural model covers residues 30-687; also called huTLR3 ECD; TLR3 ECD
measurement_kind: binding result

Qu. Give the reported binding result for this binder. mAb 15-3 (antibody, human IgG4 S228P, kappa, F234A L235A, V domains shown, also called HC: V34I/G35S) VH: EVQLVQSGAEVKKPGESLKISCKGSGYSFTNYWISWVRQMPGKGLEWMGFIDPSDSYTNYAPSFQGQVTISADKSISTAYLQWSSLKASDTAMYYCARELYQGYMDTFDSWGQGTLVTVSS VL: DIQMTQSPSSLSASVGDRVTITCRASQSIGLYLAWYQQKPGKAPKLLIYAASSLQSGVPSRFSGSGSGTDFTLTISSLQPEDFATYYCQQGNTLSYTFGQGTKVEIKR
Ans. binds

Qu. Give the reported binding result for this binder. mAb 15-4 (antibody, human IgG4 S228P, kappa, F234A L235A, V domains shown, also called HC: A61S/Q67H) VH: EVQLVQSGAEVKKPGESLKISCKGSGYSFTNYWVGWVRQMPGKGLEWMGFIDPSDSYTNYSPSFQGHVTISADKSISTAYLQWSSLKASDTAMYYCARELYQGYMDTFDSWGQGTLVTVSS VL: DIQMTQSPSSLSASVGDRVTITCRASQSIGLYLAWYQQKPGKAPKLLIYAASSLQSGVPSRFSGSGSGTDFTLTISSLQPEDFATYYCQQGNTLSYTFGQGTKVEIKR
Ans. binds

Qu. Give the reported binding result for this binder. mAb 15-6 (antibody, human IgG4 S228P, kappa, F234A L235A, V domains shown, also called HC: V34I/G35S/E99Q) VH: EVQLVQSGAEVKKPGESLKISCKGSGYSFTNYWISWVRQMPGKGLEWMGFIDPSDSYTNYAPSFQGQVTISADKSISTAYLQWSSLKASDTAMYYCARQLYQGYMDTFDSWGQGTLVTVSS VL: DIQMTQSPSSLSASVGDRVTITCRASQSIGLYLAWYQQKPGKAPKLLIYAASSLQSGVPSRFSGSGSGTDFTLTISSLQPEDFATYYCQQGNTLSYTFGQGTKVEIKR
Ans. binds
